biological target: T1, cMet-Fc fusion protein (extracellular domain of the cMet receptor expressed as an Fc-fusion protein) (human, UniProt P08581 25-932); assay: phage ELISA, cMet-Fc vs TRAIL-Fc
T1 construct: extracellular domain; also called soluble cMet-Fc-fusion protein; soluble cMet receptor; not shown: Fc part
T1 sequence (P08581 25-932): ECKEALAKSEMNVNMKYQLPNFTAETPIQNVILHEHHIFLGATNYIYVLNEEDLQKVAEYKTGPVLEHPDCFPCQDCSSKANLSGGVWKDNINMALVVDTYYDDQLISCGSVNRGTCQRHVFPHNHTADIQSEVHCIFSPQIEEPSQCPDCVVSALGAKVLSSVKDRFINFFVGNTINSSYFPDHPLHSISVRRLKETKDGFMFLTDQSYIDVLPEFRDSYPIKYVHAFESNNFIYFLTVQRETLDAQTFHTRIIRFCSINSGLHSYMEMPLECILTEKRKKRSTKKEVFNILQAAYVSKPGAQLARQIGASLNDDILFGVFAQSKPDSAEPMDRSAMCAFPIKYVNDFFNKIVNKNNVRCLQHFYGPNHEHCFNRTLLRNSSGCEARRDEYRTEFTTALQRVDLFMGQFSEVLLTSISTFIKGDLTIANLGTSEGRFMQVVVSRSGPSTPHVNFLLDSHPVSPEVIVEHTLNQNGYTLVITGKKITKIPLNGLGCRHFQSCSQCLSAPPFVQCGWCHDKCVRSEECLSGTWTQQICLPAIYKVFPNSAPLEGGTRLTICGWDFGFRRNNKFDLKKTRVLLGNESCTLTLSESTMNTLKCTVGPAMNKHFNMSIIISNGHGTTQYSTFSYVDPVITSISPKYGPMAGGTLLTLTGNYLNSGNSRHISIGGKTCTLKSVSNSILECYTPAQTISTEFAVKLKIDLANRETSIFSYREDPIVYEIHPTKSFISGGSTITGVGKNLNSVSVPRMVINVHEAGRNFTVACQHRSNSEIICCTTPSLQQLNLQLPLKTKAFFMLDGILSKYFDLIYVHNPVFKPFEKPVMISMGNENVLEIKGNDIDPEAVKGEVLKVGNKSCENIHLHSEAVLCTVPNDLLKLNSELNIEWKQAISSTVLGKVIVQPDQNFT
Label key: satisfied means Protein ELISA (fold over background) under 4 fold; not satisfied means Protein ELISA (fold over background) of 4 fold or more.

AGSTDCRGHPTFECWGWGT [549-F06 peptide-displaying phage (SEQ ID NO: 086)]; not satisfied
GSQQICDRKEYRFQACLSDAP [443-H10 peptide-displaying phage (SEQ ID NO: 371)]; satisfied
AQQASRFTFTDGDSYWWFEDF [525-A07 peptide-displaying phage (SEQ ID NO: 449)]; not satisfied
AQPYYELQDADMLLVVALLSTG [94-F07 peptide-displaying phage (SEQ ID NO: 458)]; not satisfied
AQWNQWDEFMWFLNPPPIGLMW [151-B08 peptide-displaying phage (SEQ ID NO: 480)]; satisfied
AQDLKPWTAGWEPPWLWTDRGP [104-C09 peptide-displaying phage (SEQ ID NO: 461)]; not satisfied

Lab note: next binder to report on.
## Task Is it true that Protein ELISA (fold over background) reported for AQGIAWQLEWSYMPQSPPSFDR [522-H03 peptide-displaying phage (SEQ ID NO: 495)] is less than 4 fold?
## Result not satisfied
